Recorded Kb for the following compounds
- target-desc: Muscarinic acetylcholine receptor M3 (Cavia porcellus)
- protocol-description: Antimuscarinic activity was evaluated against muscarinic M3 receptor in Guinea-Pig ileum
- Assay type: tissue-based
property-measured: Kb

smiles-record	target-desc	reported-value
N#CC(CCN1CCCC1)(c1ccccc1)c1ccccc1	Muscarinic acetylcholine receptor M3 (Cavia porcellus)	65.7 nM
c1ccc(C(CCn2ccnc2)c2ccccc2)cc1	Muscarinic acetylcholine receptor M3 (Cavia porcellus)	89.1 nM
NC(=O)C(CCN1CCCC1)(c1ccccc1)c1ccccc1	Muscarinic acetylcholine receptor M3 (Cavia porcellus)	5.59 nM
CCN(CC)CCC(c1ccccc1)c1ccccc1	Muscarinic acetylcholine receptor M3 (Cavia porcellus)	197 nM
Cc1ncn(CCC(C(N)=O)(c2ccccc2)c2ccccc2)c1C	Muscarinic acetylcholine receptor M3 (Cavia porcellus)	2.7 nM
NC(=O)C(CCn1cnc2ccccc21)(c1ccccc1)c1ccccc1	Muscarinic acetylcholine receptor M3 (Cavia porcellus)	2130 nM
CCCc1nccn1CCC(C(N)=O)(c1ccccc1)c1ccccc1	Muscarinic acetylcholine receptor M3 (Cavia porcellus)	177 nM

---

- target-desc: Muscarinic acetylcholine receptor M3 (Cavia porcellus)
- protocol-description: Antimuscarinic activity was evaluated against muscarinic M3 receptor in Guinea-Pig ileum
- Type: tissue-based
Class (by Kb) -- 1 = under 4 nM, 2 = from 4 nM up to 70 nM, 3 = 70 nM and over

molecule	label
CC(CC(c1ccccc1)c1ccccc1)NC(C)(C)C (configuration not stated)	2
CC(C)c1nccn1CCC(C(N)=O)(c1ccccc1)c1ccccc1	1
Cc1cncn1CCC(C(N)=O)(c1ccccc1)c1ccccc1	1
CCc1nccn1CCC(C(N)=O)(c1ccccc1)c1ccccc1	3
Cc1cn(CCC(C(N)=O)(c2ccccc2)c2ccccc2)cn1	2
CC(C)(C)NCCC(c1ccccc1)c1ccccc1	3
NC(=O)C(CCn1ccnc1)(c1ccccc1)c1ccccc1	2
Cc1nccn1CCC(C(N)=O)(c1ccccc1)c1ccccc1	1
CCCc1ncn(CCC(C(N)=O)(c2ccccc2)c2ccccc2)c1CCC	3
CC(C)(C)c1nccn1CCC(C(N)=O)(c1ccccc1)c1ccccc1	2
